target: DimDAF-12 (Dirofilaria immitis); test: cell-based
Sequence (A0A7D0JJL8 587-828 limits assumed): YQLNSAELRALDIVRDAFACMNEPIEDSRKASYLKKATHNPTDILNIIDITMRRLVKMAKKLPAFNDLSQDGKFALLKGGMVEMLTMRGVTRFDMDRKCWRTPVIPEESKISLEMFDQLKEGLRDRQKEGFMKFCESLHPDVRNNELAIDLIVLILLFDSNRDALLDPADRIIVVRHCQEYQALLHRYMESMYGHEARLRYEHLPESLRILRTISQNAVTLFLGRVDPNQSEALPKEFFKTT
metric: pEC50
Numbers only, as −log10 of the molar value.

Value sought: pEC50, system DimDAF-12 (Dirofilaria immitis), item CC(CCCC(C)C1CCC2C3=CCC4CC(=O)CCC4(C)C3CCC21C)C(=O)O [Δ7-dafachronic acid, (25S)-Δ7-dafachronic acid] . Result: 9.00
